# Lookup of reported Kd keyed by entry
biological target: T1, Tumor Necrosis Factor-alpha (TNF-α), R&D systems 210-TA / 210-TA-CF (human, UniProt P01375 77-233); test: biolayer interferometry (Octet QK); biotinylated TNF-α on streptavidin sensor, antibody 8 nM to 1 nM
T1 construct: Bought protein; also called huTNF-α
T1 sequence (P01375 77-233 limits assumed): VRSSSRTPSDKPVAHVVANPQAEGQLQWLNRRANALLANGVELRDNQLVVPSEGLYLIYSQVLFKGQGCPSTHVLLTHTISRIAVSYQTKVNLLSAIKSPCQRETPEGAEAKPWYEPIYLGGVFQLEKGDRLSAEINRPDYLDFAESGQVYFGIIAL
Report the value in nM with no unit label.

anti-TNF-α antibody Ab8 (antibody, V domains shown) VH: QSVEESGGRLVTPGTPLTLTCTASGFSLSNYVMGWVRQAPGKGLEFIGYIAFGIGPYYATWAKGRFSISSTSSTTVDLTMTSLTPEDTATYFCARGDYSGNNI VL: ADIVMTQTPSSVSEPVGGTVTIMCQASQNIYSYLSWYQQKPGQPPKLLIYKASTLASGVPSRFAGSGSGTDFTLTISDLECADAATYYCQSNYGSNSDSFGNA ... 0.01

Now for another entry.
Measured Kd, anti-TNF-α antibody Ab16 (antibody, V domains shown) VH: QSLEESGGRLVKPDETLTITCTVSGIDLNNYNMGWVRQAPGKGLEYIGYILGSGITYYATWAKGRFTISKTSSTTVDLKMTSLTTEDTATYFCAGSIYYRGYGMDP VL: ADIVMTQTPASVSEPVGGTVTIKCQASQTIYSSLSWYQQKPGQRPKLLIYAASTLASGVPSRFKGSGSGTDFTLTISDLECADAATYYCQSNHGSNSDSYGNA : 0.01
